measured_on: RUNX1 K83R/H179K;CBFβ (Homo sapiens;Homo sapiens?, UniProt Q01196;Q13951 1-181;1-141, K83R;H179K|)
Sequence (Q01196 1-181 K83R/H179K, chain 1 of 2): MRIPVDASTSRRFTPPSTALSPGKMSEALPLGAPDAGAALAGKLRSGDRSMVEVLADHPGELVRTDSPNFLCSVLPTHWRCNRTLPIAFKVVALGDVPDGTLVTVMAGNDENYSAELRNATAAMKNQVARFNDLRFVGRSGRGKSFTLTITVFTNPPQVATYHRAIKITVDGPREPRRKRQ
Sequence (Q13951 1-141, chain 2 of 2): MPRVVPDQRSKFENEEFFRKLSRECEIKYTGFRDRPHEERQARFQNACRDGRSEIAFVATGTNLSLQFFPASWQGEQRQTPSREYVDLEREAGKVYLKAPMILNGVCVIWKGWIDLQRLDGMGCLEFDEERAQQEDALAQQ
assay_name: ITC; RUNX1:CBFβ 1:2; ITC: 20 uM RUNX1 in cell, 100 uM DNA in syringe, 10 mM HEPES-NaOH pH 7.5, 180 mM NaCl, 0.005% Tween 20; temperature stated as 277 K (Methods) but 25 °C (Results)
condition_details: protein: recombinant;recombinant; tags: N-terminal His6;; copies: 1;1; (21 bp)
recorded_metric: Kd (nM)
Quick note: give the figure in nM, leave out the unit.

Request: Returns the measured Kd for the input binder. Input: CSF-1R promoter 21 bp DNA (dsDNA) DNA 1: CAAACTCTGTGGTTGCCTTGC DNA 2: GCAAGGCAACCACAGAGTTTG
Result: 73

Values were extracted from paper PMC6497270.
